- TARGET OR SYSTEM: recombinant rat MASP2 active protease (amino acids 296-685, C-terminal His Tag) (rat, UniProt Q9JJS8 296-685)
- Sequence (Q9JJS8 other isoform, or with tags, fused parts or gaps limits assumed): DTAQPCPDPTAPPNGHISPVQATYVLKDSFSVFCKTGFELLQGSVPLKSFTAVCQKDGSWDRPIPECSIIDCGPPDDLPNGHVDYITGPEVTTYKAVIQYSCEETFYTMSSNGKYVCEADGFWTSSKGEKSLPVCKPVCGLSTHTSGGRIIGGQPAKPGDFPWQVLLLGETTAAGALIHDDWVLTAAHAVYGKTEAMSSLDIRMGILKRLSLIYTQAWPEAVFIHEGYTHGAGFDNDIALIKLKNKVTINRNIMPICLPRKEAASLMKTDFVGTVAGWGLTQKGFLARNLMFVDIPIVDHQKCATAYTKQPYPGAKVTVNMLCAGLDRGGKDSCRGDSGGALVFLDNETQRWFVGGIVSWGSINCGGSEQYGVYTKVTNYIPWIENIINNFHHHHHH
- METHOD SUMMARY: cell-based or functional assay
Numbered stars: 1 amine (or outer) side, 2 acyl side, 3 side chain; on linkers, the order of the positions; unused ones are H or OH. Bridge positions count the residues as written; N and C are the ends. Square brackets hold non-standard residues; d marks the D form. Ends that are not written are not given here. * marks the point of attachment. (N-Benzyl)D = (2S)-2-Amino-4-(benzylamino)-4-oxobutanecarboxylic acid, O=C(C[C@H](N[*:1])C(=O)[*:2])NCc1ccccc1; Phe(2,3-F2) = (2S)-3-(2,3-difluorophenyl)-2-aminopropanoic acid, O=C([C@H](Cc1cccc(F)c1F)N[*:1])[*:2]; X6 = (S)‑(1-Piperidin-3-yl)‑acetic acid, O=C(C[C@@H]1CCCN([*:1])C1)[*:2]; Benzoyl(4-COOH) = O=C(O)c1ccc(C(=O)*)cc1; Oic = O=C(O)[C@@H]1C[C@@H]2CCCC[C@@H]2N1; tBuAla = CC(C)(C)C[C@H](N)C(=O)O; Pen = CC(C)(S)[C@H](N)C(=O)O; NMeC = CN[C@@H](CS)C(=O)O; NMeA = CN[C@@H](C)C(=O)O; Nva = CCC[C@H](N)C(=O)O; Ahx = NCCCCCC(=O)O; Sar = CNCC(=O)O
Consider the following binders; for each one, report its rat MASP2 IC50.
Hi! Could you send only the number? It should be in nM, unit omitted.

Entry [Sar]ICSRSLP[Oic]I[Pen]IPD[Ahx]-OH (disulfide 3-11; N-terminus assumed; SMILES CC[C@H](C)[C@H](NC(=O)CNC)C(=O)N[C@H]1CSSC(C)(C)[C@@H](C(=O)N[C@H](C(=O)N2CCC[C@H]2C(=O)N[C@@H](CC(=O)O)C(=O)NCCCCCC(=O)O)[C@@H](C)CC)NC(=O)[C@H]([C@@H](C)CC)NC(=O)[C@@H]2C[C@@H]3CCCC[C@@H]3N2C(=O)[C@@H]2CCCN2C(=O)[C@H](CC(C)C)NC(=O)[C@H](CO)NC(=O)[C@H](CCCNC(=N)N)NC(=O)[C@H](CO)NC1=O) [Example 465: ((N-Me)G)-IC+SRSLP-(Oic)-I-(Pen)+IPD-(Ahx)-OH] — recorded rat MASP2 IC50 = 140

Entry [Sar]ICSRS[Phe(2,3-F2)]PPI[Pen]IP-NH2 (disulfide 3-11; N-terminus assumed; SMILES CC[C@H](C)[C@H](NC(=O)CNC)C(=O)N[C@H]1CSSC(C)(C)[C@@H](C(=O)N[C@H](C(=O)N2CCC[C@H]2C(N)=O)[C@@H](C)CC)NC(=O)[C@H]([C@@H](C)CC)NC(=O)[C@@H]2CCCN2C(=O)[C@@H]2CCCN2C(=O)[C@H](Cc2cccc(F)c2F)NC(=O)[C@H](CO)NC(=O)[C@H](CCCNC(=N)N)NC(=O)[C@H](CO)NC1=O) [Example 440: ((N-Me)G)-IC+SRS-((2S)-3-(2,3-difluorophenyl)-2-aminopropanoic acid)-PPI-(Pen)+IP-NH2] — recorded rat MASP2 IC50 = 14

Entry [Sar]ICSRSLP[Oic]I[Pen]IP[X6]-OH (disulfide 3-11; N-terminus assumed; SMILES CC[C@H](C)[C@H](NC(=O)CNC)C(=O)N[C@H]1CSSC(C)(C)[C@@H](C(=O)N[C@H](C(=O)N2CCC[C@H]2C(=O)N2CCC[C@@H](CC(=O)O)C2)[C@@H](C)CC)NC(=O)[C@H]([C@@H](C)CC)NC(=O)[C@@H]2C[C@@H]3CCCC[C@@H]3N2C(=O)[C@@H]2CCCN2C(=O)[C@H](CC(C)C)NC(=O)[C@H](CO)NC(=O)[C@H](CCCNC(=N)N)NC(=O)[C@H](CO)NC1=O) [Example 451: ((N-Me)G)-IC+SRSLP-(Oic)-I-(Pen)+IP-((S)-(1-Piperidin-3-yl)-acetic acid)-OH] — recorded rat MASP2 IC50 = 46

Entry [NMeA]ICSRSLP[Oic]I[Pen]IP[(N-Benzyl)D]-NH2 (disulfide 3-11) [Example 462: ((N-Me)A)-IC+SRSLP-(Oic)-I-(Pen)+IP-((N-Benzyl)D)-NH2] — recorded rat MASP2 IC50 = 150

Entry AICSRSLP[Oic]I[NMeC]IPD-NH2 (disulfide 3-11; N-terminus assumed; SMILES CC[C@H](C)[C@H](NC(=O)[C@H](C)N)C(=O)N[C@H]1CSSC[C@@H](C(=O)N[C@H](C(=O)N2CCC[C@H]2C(=O)N[C@@H](CC(=O)O)C(N)=O)[C@@H](C)CC)N(C)C(=O)[C@H]([C@@H](C)CC)NC(=O)[C@@H]2C[C@@H]3CCCC[C@@H]3N2C(=O)[C@@H]2CCCN2C(=O)[C@H](CC(C)C)NC(=O)[C@H](CO)NC(=O)[C@H](CCCNC(=N)N)NC(=O)[C@H](CO)NC1=O) [Example 185: AIC+SRSLP-(Oic)-I-((N-Me)C)+IPD-NH2] — recorded rat MASP2 IC50 = 10.9

Entry [NMeA]ICSRS[tBuAla]PPI[Pen]IP-NH2 (disulfide 3-11; N-terminus assumed; SMILES CC[C@H](C)[C@H](NC(=O)[C@H](C)NC)C(=O)N[C@H]1CSSC(C)(C)[C@@H](C(=O)N[C@H](C(=O)N2CCC[C@H]2C(N)=O)[C@@H](C)CC)NC(=O)[C@H]([C@@H](C)CC)NC(=O)[C@@H]2CCCN2C(=O)[C@@H]2CCCN2C(=O)[C@H](CC(C)(C)C)NC(=O)[C@H](CO)NC(=O)[C@H](CCCNC(=N)N)NC(=O)[C@H](CO)NC1=O) [Example 126: ((N-Me)A)-IC+SRS-((tBu)A)-PPI-(Pen)+IP-NH2] — recorded rat MASP2 IC50 = 10

Entry {Benzoyl(4-COOH)}-GICSRSLP[Oic]I[Pen]IPD-OH (disulfide 3-11; SMILES CC[C@H](C)[C@H](NC(=O)CNC(=O)c1ccc(C(=O)O)cc1)C(=O)N[C@H]1CSSC(C)(C)[C@@H](C(=O)N[C@H](C(=O)N2CCC[C@H]2C(=O)N[C@@H](CC(=O)O)C(=O)O)[C@@H](C)CC)NC(=O)[C@H]([C@@H](C)CC)NC(=O)[C@@H]2C[C@@H]3CCCC[C@@H]3N2C(=O)[C@@H]2CCCN2C(=O)[C@H](CC(C)C)NC(=O)[C@H](CO)NC(=O)[C@H](CCCNC(=N)N)NC(=O)[C@H](CO)NC1=O) [Example 490: (4-Carboxybenzoic acid)-GIC+SRSLP-(Oic)-I-(Pen)+IPD-OH] — recorded rat MASP2 IC50 = 15

Entry A[Nva]CSRS[tBuAla]PPI[Pen]IPD-NH2 (disulfide 3-11; N-terminus assumed; SMILES CCC[C@H](NC(=O)[C@H](C)N)C(=O)N[C@H]1CSSC(C)(C)[C@@H](C(=O)N[C@H](C(=O)N2CCC[C@H]2C(=O)N[C@@H](CC(=O)O)C(N)=O)[C@@H](C)CC)NC(=O)[C@H]([C@@H](C)CC)NC(=O)[C@@H]2CCCN2C(=O)[C@@H]2CCCN2C(=O)[C@H](CC(C)(C)C)NC(=O)[C@H](CO)NC(=O)[C@H](CCCNC(=N)N)NC(=O)[C@H](CO)NC1=O) [Example 199: A-(Nva)-C+SRS-((tBu)A)-PPI-(Pen)+IPD-NH2] — recorded rat MASP2 IC50 = 49
